Sourced from PubChem BioAssay (NCATS)

Tested on: CP238
Assay: qHTS profiling for inhibitors of Plasmodium falciparum proliferation (AID 504749); note: nearly all actives have a fitted effect of over 60% in size
Conditions: P. falciparum in erythrocytes, SYBR Green DNA, 72 h; series mostly up to 28.7 µM
Results filed as inconclusive are left out. Activity calls are given as the source filed them. Calls come from the whole dose curve; as a rule, active = well fitted inhibition curve with a large enough effect; inconclusive = small, poorly fitted or top-dose-only effect; inactive = flat fitted curve, though single readings scatter. Numbered stars: 1 amine (or outer) side, 2 acyl side, 3 side chain; on linkers, the order of the positions; unused ones are H or OH. Bridge positions count the residues as written; N and C are the ends. Square brackets hold non-standard residues; d marks the D form. Peptide text beside a SMILES is read from it. * marks the point of attachment. ξ: configuration not given here. ΔAla(Z-3-ureido) = NC(=O)N/C=C(\N)C(=O)O; X1 = NC1=NCCC(C(N[*:1])C(=O)[*:2])N1; ξβ3hOrn = NCCCC(N)CC(=O)*; Orn = NCCC[CH](N)C(=O)O; Dap = NC[CH](N)C(=O)O
Labels: true (active), false (inactive)

molecule: CC(C)CC1NC(=O)C(CCCN)NC(=O)C(C(C)C)NC(=O)C2CCCN2C(=O)C(Cc2ccccc2)NC(=O)C(CC(C)C)NC(=O)C(CCCN)NC(=O)C(C(C)C)NC(=O)C2CCCN2C(=O)C(Cc2ccccc2)NC1=O (configuration not stated) (cyclo(FPV[Orn]LFPV[Orn]L); configuration not given here)
category-label: true
//
molecule: NCCCC(N)CC(=O)NCC1NC(=O)C(CO)NC(=O)C(N)CNC(=O)C(C2CCN=C(N)N2)NC(=O)/C(=C/NC(N)=O)NC1=O (stereo not drawn) (H-[Dap]S[Dap](ξβ3hOrn)[ΔAla(Z-3-ureido)][X1]; lactam 1-C; configuration not given here)
category-label: false
